System: A549 lung cancer cell line
Experiment: MTT cytotoxicity assay, A549
Format: cell-based, human
Settings: Homo sapiens, A549; MTT assay, isolated compounds; read-out: IC50 A549
Measured IC50 values are reported for all entries that follow.
Write down the numeric answer in µM and omit the unit.

// known answers, use as guide
[[record]]
compound = "COc1ccc(-c2cc(=O)c3c(O)cc(OC)cc3o2)cc1 [Compound 3, 5-hydroxy-7,4'-dimethoxyflavone]"
readout_value = 469

[[record]]
compound = "COc1cc([C@@H]2c3cc4c(cc3[C@@H](O[C@@H]3O[C@@H]5CO[C@@H](C)O[C@H]5[C@H](O)[C@H]3O)[C@H]3COC(=O)[C@H]23)OCO4)cc(OC)c1O [Etoposide, reference compound]"
readout_value = 28.2


Then this compound:
*Q* Give reported IC50 value for C=C[C@]1(C)CCC2[C@@]3(C)CCCC(C)(C)C3[C@@H](O)C[C@@]2(C)O1 (stereo partly drawn) [Compound 2, 6α-hydroxy-13-epimanoyl oxide]
*A* 170
